system: SK-MEL-3; assay: Cytotoxicity assay by the CTG method, SK-MEL-3; format: cell-based; conditions: Homo sapiens, SK-MEL3, SK-MEL-3, Melanoma, 72 h
pIC50: −log10 of the molar value.
RECORDED METRIC: pIC50

1. Cc1ccc(S(=O)(=O)Nc2nc3ccccc3nc2Nc2ccc3nsnc3c2)cc1F :: 5.04

* * *

system: A2058; assay: Cytotoxicity assay by the CTG method, A2058; format: cell-based; details: Homo sapiens, A2058, Melanoma, 72 h
RECORDED METRIC: IC50

1. Cc1ccc(S(=O)(=O)Nc2nc3ccccc3nc2Nc2ccc3nsnc3c2)cc1F :: 7.7 µM
